Taken from patent US20180099931A1.

Target: F508delCFTR (Homo sapiens, UniProt P13569, DEL508-508)
Construct: expressed in transfected cells; host or cells: CFBE41o- human lung-derived epithelial cells (CFBE4lo-F508delCFTR-HRP), doxycycline-inducible
Sequence (P13569 with tags, fused parts or gaps DEL508-508): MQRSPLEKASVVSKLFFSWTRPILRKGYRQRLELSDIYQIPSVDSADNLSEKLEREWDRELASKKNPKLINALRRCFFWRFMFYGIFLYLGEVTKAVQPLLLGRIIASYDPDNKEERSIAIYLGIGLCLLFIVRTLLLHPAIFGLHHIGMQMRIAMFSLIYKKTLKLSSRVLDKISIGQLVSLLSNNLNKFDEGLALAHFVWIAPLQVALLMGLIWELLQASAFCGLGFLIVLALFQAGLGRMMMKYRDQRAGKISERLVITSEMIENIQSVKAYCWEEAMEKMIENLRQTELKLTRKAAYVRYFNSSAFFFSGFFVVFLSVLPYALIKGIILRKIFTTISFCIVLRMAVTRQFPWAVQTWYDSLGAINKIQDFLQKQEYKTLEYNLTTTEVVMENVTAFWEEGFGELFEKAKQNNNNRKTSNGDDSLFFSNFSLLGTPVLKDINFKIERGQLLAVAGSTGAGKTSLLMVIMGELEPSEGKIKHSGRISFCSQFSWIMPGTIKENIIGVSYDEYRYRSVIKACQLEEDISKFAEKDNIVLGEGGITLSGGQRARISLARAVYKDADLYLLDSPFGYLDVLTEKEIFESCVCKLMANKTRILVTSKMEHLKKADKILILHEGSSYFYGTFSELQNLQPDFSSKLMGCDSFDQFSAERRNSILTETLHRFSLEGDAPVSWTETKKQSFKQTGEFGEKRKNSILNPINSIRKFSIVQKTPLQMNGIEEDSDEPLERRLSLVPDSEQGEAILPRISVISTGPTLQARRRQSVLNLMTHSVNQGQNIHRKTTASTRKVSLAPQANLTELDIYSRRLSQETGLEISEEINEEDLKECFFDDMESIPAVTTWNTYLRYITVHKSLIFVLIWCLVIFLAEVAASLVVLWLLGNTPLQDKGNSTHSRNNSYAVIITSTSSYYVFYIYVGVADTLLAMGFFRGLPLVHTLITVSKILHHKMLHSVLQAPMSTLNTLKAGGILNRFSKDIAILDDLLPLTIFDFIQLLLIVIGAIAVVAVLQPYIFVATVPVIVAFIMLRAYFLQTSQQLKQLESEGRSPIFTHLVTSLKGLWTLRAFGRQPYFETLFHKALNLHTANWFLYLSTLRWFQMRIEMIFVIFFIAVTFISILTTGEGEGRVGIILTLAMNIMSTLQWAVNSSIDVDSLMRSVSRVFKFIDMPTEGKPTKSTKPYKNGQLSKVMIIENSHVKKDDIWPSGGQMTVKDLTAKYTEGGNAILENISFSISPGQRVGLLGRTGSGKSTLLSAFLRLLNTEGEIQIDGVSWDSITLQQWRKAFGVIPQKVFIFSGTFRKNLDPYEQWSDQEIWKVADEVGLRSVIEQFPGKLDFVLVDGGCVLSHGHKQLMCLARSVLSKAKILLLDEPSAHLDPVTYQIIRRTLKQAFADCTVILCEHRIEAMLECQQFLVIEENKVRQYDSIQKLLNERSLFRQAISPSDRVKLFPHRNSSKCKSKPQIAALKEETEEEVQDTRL
Test: Cell Surface Expression-Horse Radish Peroxidase (CSE-HRP) Assay
Type: cell-based
Conditions: CSE-HRP; with co-corrector (2 μM); maximum at any tested concentration, normalized to on-plate positive control
Procedure: Cell Surface Expression-Horse Radish Peroxidase (CSE-HRP) Assay The development was achieved by expressing the F508delCFTR mutation along with a horseradish peroxidase (HRP) in the fourth exofacial loop, and then measuring the HRP activity using luminescence readout from these cells, CFBE4lo-F508delCFTR-HRP, that were incubated overnight with the test corrector compounds, either without or with the co-corrector. […] The raw counts from the experiment were analyzed using Accelrys® Assay Explorer v3.3. […]
quantity: Maximum % activity (with co-corrector)

// solved cases for Maximum % activity (with co-corrector) follow
compound	measurement.target	quantity	test.result
COc1ccc(C(C)(C)C)cc1CN[C@H]1[C@H](C(C)(C)C)[C@@H](C(=O)O)N(C(=O)CC23CC(C2)C3)[C@H]1c1ccccc1	F508delCFTR (Homo sapiens, UniProt P13569, DEL508-508)	Maximum % activity (with co-corrector)	+++ (≥350)
CC(C)(C)[C@H]1[C@H](NCc2cc(F)cc(F)c2)[C@H](c2ccccc2)N(C(=O)C2CCCCC2)[C@@H]1C(=O)O	F508delCFTR (Homo sapiens, UniProt P13569, DEL508-508)	Maximum % activity (with co-corrector)	++ (≥150 and <350)
COc1ccc(C(C)(C)C)cc1CN[C@H]1[C@H](C(C)(C)C)[C@@H](C(=O)O)N(C(=O)C(OC)C(C)(C)C)[C@H]1c1ccccc1 (stereo partly drawn) [II-298]	F508delCFTR (Homo sapiens, UniProt P13569, DEL508-508)	Maximum % activity (with co-corrector)	+++ (≥350)
CC(C)OC(=O)N1[C@H](C(=O)O)[C@@H](C(C)(C)C)[C@H](NCCc2ccccc2)[C@@H]1c1ccccc1	F508delCFTR (Homo sapiens, UniProt P13569, DEL508-508)	Maximum % activity (with co-corrector)	++ (≥150 and <350)

Pending compound:
stdin: // query Maximum % activity (with co-corrector) value for entry COc1cc(Cl)ccc1CN[C@H]1[C@H](C(C)(C)C)[C@@H](C(=O)O)N(C(=O)C2CCCCC2)[C@H]1c1ccccc1
stdout: +++ (≥350)

* * *

molecular target: F508delCFTR (Homo sapiens, UniProt P13569, DEL508-508); construct: expressed in transfected cells; host or cells: CFBE41o- human lung-derived epithelial cells (CFBE4lo-F508delCFTR-HRP), doxycycline-inducible; assay: Cell Surface Expression-Horse Radish Peroxidase (CSE-HRP) Assay; type: cell-based; settings: with co-corrector (2 μM); maximum at any tested concentration, normalized to on-plate positive control;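 note: co-corrector and positive control are both the same reference corrector at 2 µM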
quantity: Maximum % activity (with co-corrector)

// solved cases for Maximum % activity (with co-corrector) follow
compound	measurement.target	Maximum % activity (with co-corrector)
COc1ccc(Br)nc1CN[C@H]1[C@H](C(C)(C)C)[C@@H](C(=O)O)N(C(=O)C2CCCCC2)[C@H]1c1ccccc1	F508delCFTR (Homo sapiens, UniProt P13569, DEL508-508)	+++ (≥350)
CO[C@H](C(=O)N1[C@H](C(=O)O)[C@@H](C(C)(C)C)[C@H](Nc2cc(C(F)(F)F)cc(C)n2)[C@@H]1c1ccccc1)c1ccccc1	F508delCFTR (Homo sapiens, UniProt P13569, DEL508-508)	+ (<150)
COc1ncc(C2CC2)cc1CN[C@H]1[C@H](C(C)(C)C)[C@@H](C(=O)O)N(C(=O)C2CCCCC2)[C@H]1c1ccccc1C	F508delCFTR (Homo sapiens, UniProt P13569, DEL508-508)	+++ (≥350)
COc1ccc(S(F)(F)(F)(F)F)cc1CN[C@H]1[C@H](C(C)(C)C)[C@@H](C(=O)O)N(C(=O)OC(C)C)[C@H]1c1cccnc1N(C)C	F508delCFTR (Homo sapiens, UniProt P13569, DEL508-508)	+++ (≥350)
COc1ncc(C2CCC2)cc1CN[C@H]1[C@H](C(C)(C)C)[C@@H](C(=O)O)N(C(=O)OC(C)C)[C@H]1c1ccccc1	F508delCFTR (Homo sapiens, UniProt P13569, DEL508-508)	+++ (≥350)

stdin: // query Maximum % activity (with co-corrector) value for entry COc1ccc(C23CC(C2)C3)cc1CN[C@H]1[C@H](C(C)(C)C)[C@@H](C(=O)O)N(C(=O)[C@H]2CCCCO2)[C@H]1c1cccnc1N(C)C
stdout: +++ (≥350)

stdin: // query Maximum % activity (with co-corrector) value for entry COC(=O)N1CCC[C@@H](C(=O)N2[C@H](c3ccccc3)[C@H](Nc3cc(C(F)(F)F)cc(C)n3)[C@@H](C(C)(C)C)[C@@H]2C(=O)O)C1 (racemic)
stdout: +++ (≥350)

stdin: // query Maximum % activity (with co-corrector) value for entry CC(C)(C)[C@@H]1[C@@H](Nc2nccc(C(F)(F)F)n2)[C@@H](c2ccccc2)N(C(=O)C2CCCCC2)[C@H]1C(=O)O (racemic)
stdout: +++ (≥350)

stdin: // query Maximum % activity (with co-corrector) value for entry COc1ncc(Cc2ccccc2)cc1CN[C@H]1[C@H](C(C)(C)C)[C@@H](C(=O)O)N(C(=O)C2CCCCC2)[C@H]1c1ccccc1
stdout: +++ (≥350)

stdin: // query Maximum % activity (with co-corrector) value for entry CC(C)(C)NC(=O)c1cncc(N[C@H]2[C@H](C(C)(C)C)[C@@H](C(=O)O)N(C(=O)C3CCCCC3)[C@H]2c2ccccc2)c1
stdout: + (<150)

stdin: // query Maximum % activity (with co-corrector) value for entry COc1ccc(C(C)(C)C)cc1CN[C@H]1[C@H](C(C)(C)C)[C@@H](C(=O)O)N(C(=O)[C@@H]2CCCCO2)[C@H]1c1ccccc1C
stdout: +++ (≥350)
